- protocol-notes: log P determination by HPLC (reversed-phase C18), EEC Directive 79/831 Annex V.A8
- Type: physicochemical
- reported-conditions: reversed-phase C18 HPLC column; pH 2.3; HPLC, reversed-phase C 18, 43° C., 0.1% aqueous phosphoric acid/acetonitrile; read-out: log P (pH 2.3)
observed-property: chromatographic logP

compound	observed-property	obs-value
COC(=O)CS(=O)(=O)c1nccc(-c2ccccn2)n1	chromatographic logP	1.37
CSC(C)COC(=O)CSc1nccc(-c2ccccn2)n1 (centres unmarked)	chromatographic logP	2.78

P. CCOC(=O)C(OC(=O)CSc1nccc(-c2ccccn2)n1)C(C)C (centres unmarked)
Q. c1ccc(-c2ccnc(SCc3nn[nH]n3)n2)nc1
R. O=C(CSc1nccc(-c2ccccn2)n1)NCc1ccc(Cl)nc1
Please rank these compounds by chromatographic logP in descending order. Write the labels in rank order as requested.
P, R, Q
(P: 3.2, R: 1.71, Q: 1.17)

I. COC(=O)C(Cc1cccc(Cl)c1)Sc1nccc(-c2ccccn2)n1 (centres unmarked)
II. CCOC(=O)C(F)Sc1nccc(-c2ccccn2)n1 (centres unmarked)
Pick one: I or II . Which has the bigger chromatographic logP number? The response must carry the label of the picked entry.
I

I. O=C(CSc1nccc(-c2ccccn2)n1)OC(C(F)(F)F)C(F)(F)F
II. CC(C)N1CCN(C(=O)CSc2nccc(-c3ccccn3)n2)CC1
III. CCCCCCCCCCCCOC(=O)CSc1nccc(-c2ccccn2)n1
Hello, I need these entries ordered by chromatographic logP, highest reading first. Thanks! // respond by listing labels in the order requested
III, I, II
(III: 7.22, I: 3.59, II: 0.95)
